# System: SGC-7901 gastric cancer cells
# test method notes: Growth inhibition of cancer cell lines (MTS / WST assay), SGC-7901
# Format: cell-based
# assay setup: Homo sapiens, SGC-7901, 72 h
A collection of compounds and their measured GI50
Only the number, expressed in nM, is required.

Worked examples, 5 compounds total:
CN1C[C@@H](C(=O)Nc2ccc(F)cc2)[C@H](c2ccc(/C=C/C(=O)Nc3ccccc3N)cc2)C1; 310
COc1ccc(NC(=O)C2CN(C)CC2c2ccc(/C=C/C(=O)Nc3ccccc3N)cc2)cc1 (stereo not drawn); 420
CN1CC(C(=O)Nc2ccc(F)cc2)C(c2ccc(/C=C/C(=O)Nc3ccccc3N)cc2)C1 (racemic); 390
Nc1ccccc1NC(=O)/C=C/c1ccc(C2CN(C3CCOCC3)CC2C(=O)Nc2ccc(Cl)cc2)cc1 (stereo not drawn); 410
CC(C)(C)N1CC(C(=O)Nc2ccc(Cl)cc2)C(c2ccc(/C=C/C(=O)Nc3ccccc3N)cc2)C1 (racemic); 490

Moving on to another compound below.
The recorded GI50 for CN1CC(c2ccc(/C=C/C(=O)Nc3ccccc3N)cc2)C(c2ncc(-c3ccccc3)[nH]2)C1 (stereo not drawn) is 420

---

# System: SMMC-7721 liver cancer cells
# test method notes: Growth inhibition of cancer cell lines (MTS / WST assay), SMMC-7721
# Assay type: cell-based
# assay setup: Homo sapiens, SMMC-7721, 72 h, read-out: SMMC GI90
property label: IC90

CN1CC(C(=O)Nc2ccccc2)C(c2ccc(/C=C/C(=O)Nc3ccccc3N)cc2)C1 (stereo not shown); 2.42 µM
CC(C)(O)CN1CC(C(=O)Nc2ccc(Cl)cc2)C(c2ccc(/C=C/C(=O)Nc3ccccc3N)cc2)C1 (stereo not shown); 2.09 µM
CN1CC(c2ccc(/C=C/C(=O)Nc3ccccc3N)cc2)C(c2nc3cc(Cl)ccc3[nH]2)C1 (stereo not shown); 1.81 µM

Proceed to the following item.
IC90 in this record for COCCN1CC(C(=O)Nc2ccc(Cl)cc2)C(c2ccc(/C=C/C(=O)Nc3ccccc3N)cc2)C1 (stereo not shown) : 3.32 µM

---

# Test system: histone deacetylase (HeLa nuclear extract)
# test method notes: HeLa extract HDAC fluorometric assay
# Format: biochemical
# assay setup: compound at 30 micromolar; relative to SNDX-275
property label: HD RP30 (relative inhibitory potency compared with SNDX-275)
Number, no unit, nothing else.

Example cases with answers are listed next.
CN1CC(C(=O)Nc2ccccc2)C(c2ccc(/C=C/C(=O)Nc3ccccc3N)cc2)C1 (stereo not shown); 1.58
CC(C)(O)CN1CC(C(=O)Nc2ccc(Cl)cc2)C(c2ccc(/C=C/C(=O)Nc3ccccc3N)cc2)C1 (stereo not shown); 1.48
CN1CC(C(=O)Nc2ccc(F)cc2)C(c2ccc(/C=C/C(=O)Nc3ccccc3N)nc2)C1 (stereo not shown); 1.36
CN1C[C@@H](C(=O)Nc2ccc(F)cc2)[C@H](c2ccc(/C=C/C(=O)Nc3ccccc3N)cc2)C1; 1.95

The observed HD RP30 (relative inhibitory potency compared with SNDX-275) for CN1CC(C(=O)Nc2ccc(F)c(Cl)c2)C(c2ccc(/C=C/C(=O)Nc3ccccc3N)cc2)C1 (stereo not shown) when tested with histone deacetylase (HeLa nuclear extract) stands at 1.97

Entry CC(C)(CO)N1CC(C(=O)Nc2ccc(Cl)cc2)C(c2ccc(/C=C/C(=O)Nc3ccccc3N)cc2)C1 (racemic) , tested on histone deacetylase (HeLa nuclear extract), has a reported HD RP30 (relative inhibitory potency compared with SNDX-275) of 1.38

Short answer on histone deacetylase (HeLa nuclear extract) for Cc1cc(NC(=O)C2CN(C)CC2c2ccc(/C=C/C(=O)Nc3ccccc3N)cc2)ccc1F (stereo not shown) , HD RP30 (relative inhibitory potency compared with SNDX-275): 1.61

# HD RP30 (relative inhibitory potency compared with SNDX-275) measured on histone deacetylase (HeLa nuclear extract) for item CC(C)N1CC(C(=O)Nc2ccc(Br)cc2)C(c2ccc(/C=C/C(=O)Nc3ccccc3N)cc2)C1 (stereo not shown) = 2.03

Form field HD RP30 (relative inhibitory potency compared with SNDX-275) for item Nc1ccccc1NC(=O)/C=C/c1ccc(C2CN(C3CCOCC3)CC2C(=O)Nc2ccc(Cl)cc2)cc1 (stereo not shown) [Example 16-20] on histone deacetylase (HeLa nuclear extract): 1.90

Readout HD RP30 (relative inhibitory potency compared with SNDX-275) for CN1CC(C(=O)Nc2ccc(F)cc2)C(c2ccc(/C=C/C(=O)Nc3ccccc3N)cc2)C1 (racemic) , test system histone deacetylase (HeLa nuclear extract), was 1.61

Readout HD RP30 (relative inhibitory potency compared with SNDX-275) for COc1ccc(NC(=O)C2CN(C)CC2c2ccc(/C=C/C(=O)Nc3ccccc3N)cc2)cc1 (stereo not shown) , test system histone deacetylase (HeLa nuclear extract), was 1.49

Here Cc1cccc(NC(=O)C2CN(C)CC2c2ccc(/C=C/C(=O)Nc3ccccc3N)cc2)c1 (stereo not shown) was tested on histone deacetylase (HeLa nuclear extract), and its HD RP30 (relative inhibitory potency compared with SNDX-275) came to 1.70

The molecule CN1CC(c2ccc(/C=C/C(=O)Nc3ccccc3N)cc2)C(c2nc3cc(Cl)ccc3[nH]2)C1 (stereo not shown) , tested on histone deacetylase (HeLa nuclear extract), showed HD RP30 (relative inhibitory potency compared with SNDX-275) of 1.70

Record for CC(C)(C)N1CC(C(=O)Nc2ccc(Cl)cc2)C(c2ccc(/C=C/C(=O)Nc3ccccc3N)cc2)C1 (racemic) under target or system histone deacetylase (HeLa nuclear extract): HD RP30 (relative inhibitory potency compared with SNDX-275) reported as 1.75

histone deacetylase (HeLa nuclear extract) HD RP30 (relative inhibitory potency compared with SNDX-275) of CN1CC(c2ccc(/C=C/C(=O)Nc3ccccc3N)cc2)C(c2ncc(-c3ccccc3)[nH]2)C1 (stereo not shown) is 1.64

Tested on histone deacetylase (HeLa nuclear extract): Nc1ccccc1NC(=O)/C=C/c1ccc(C2CN(C3CCOCC3)CC2C(=O)Nc2ccc(Cl)cc2)cc1 (stereo not shown) [Example 16-2] . Observed HD RP30 (relative inhibitory potency compared with SNDX-275): 1.36

Test item CN1CC(C(=O)Nc2ccc(F)cc2)C(c2ccc(/C=C/C(=O)Nc3ccccc3N)cc2F)C1 (stereo not shown) ; histone deacetylase (HeLa nuclear extract); reported HD RP30 (relative inhibitory potency compared with SNDX-275) was 1.84

// returns HD RP30 (relative inhibitory potency compared with SNDX-275) for Cc1ccc(NC(=O)C2CN(C)CC2c2ccc(/C=C/C(=O)Nc3ccccc3N)cc2)cc1 (stereo not shown) with histone deacetylase (HeLa nuclear extract); value = 1.63

Test item CC(C)N1CC(C(=O)Nc2ccc(Cl)cc2)C(c2ccc(/C=C/C(=O)Nc3ccccc3N)cc2)C1 (stereo not shown) ; histone deacetylase (HeLa nuclear extract); reported HD RP30 (relative inhibitory potency compared with SNDX-275) was 1.53

Value source: patent US7977372B2
